Data origin: patent US20240270762A1

System: N. gonorrhoeae ATCC 49226
test_method_notes: Liquid broth MIC in Fastidious broth
run_parameters: Neisseria gonorrhoeae, ATCC49226, read-out: Minimum Inhibitory Concentration (MIC), N. gonorrhoeae ATCC 49226
Entries and their measured MIC follow.
measured_property: MIC

compound="CS(=O)(=O)N1CCN(C(=O)N[C@@H](C(=O)N[C@H]2Cc3cccc(C(=O)O)c3OB2O)c2ccc(P(=O)(O)O)c(F)c2F)C1=O (single isomer, unassigned) [Example 13]" data_value="< 1 µg/mL"
compound="O=C(NCCCN1CCN(C(=O)NC(C(=O)N[C@H]2Cc3ccc(F)c(C(=O)O)c3OB2O)c2cc(F)c(O)c(O)c2Cl)C(=O)C1=O)c1cccc(O)c1 (stereo partly drawn) [Example 204]" data_value="16 to 32 µg/mL"
compound="O=C(N[C@H](C(=O)N[C@H]1Cc2cccc(C(=O)O)c2OB1O)c1ccc(P(=O)(O)O)cc1)c1ccc(C(F)(F)F)cn1 (single isomer, unassigned) [Example 192]" data_value="1 to 2 µg/mL"

###

measurement_target: A. baumannii PBP2 (Acinetobacter baumannii, UniProt D0C8Z9)
Sequence (D0C8Z9 whole entry): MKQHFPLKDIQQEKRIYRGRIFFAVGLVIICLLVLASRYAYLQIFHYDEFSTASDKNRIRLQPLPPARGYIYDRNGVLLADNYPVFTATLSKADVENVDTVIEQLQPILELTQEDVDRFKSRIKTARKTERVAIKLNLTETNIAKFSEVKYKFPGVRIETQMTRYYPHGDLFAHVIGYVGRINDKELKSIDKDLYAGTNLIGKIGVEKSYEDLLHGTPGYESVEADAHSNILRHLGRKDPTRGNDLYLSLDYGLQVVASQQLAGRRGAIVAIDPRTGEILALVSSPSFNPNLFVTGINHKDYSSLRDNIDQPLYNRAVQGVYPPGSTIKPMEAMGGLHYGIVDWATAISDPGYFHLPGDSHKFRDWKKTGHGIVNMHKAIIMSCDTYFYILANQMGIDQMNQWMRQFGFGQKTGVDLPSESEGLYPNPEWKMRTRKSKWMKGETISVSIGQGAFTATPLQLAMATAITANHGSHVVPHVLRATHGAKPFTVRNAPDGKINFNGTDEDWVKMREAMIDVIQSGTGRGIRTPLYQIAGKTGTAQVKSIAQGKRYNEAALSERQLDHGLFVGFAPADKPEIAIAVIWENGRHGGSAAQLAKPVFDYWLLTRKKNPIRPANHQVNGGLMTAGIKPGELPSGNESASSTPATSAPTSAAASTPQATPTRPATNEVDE
test_method_notes: Bocillin-FL competition binding via gel filtration, A. baumannii PBP2
measured_property: EC50

compound="O=C(NCCCS(=O)(=O)N1CCN(C(=O)NC(C(=O)N[C@H]2Cc3ccc(F)c(C(=O)O)c3OB2O)c2cc(F)c(O)c(O)c2Cl)C1=O)c1cccnc1 (some centres unmarked)" measured_property=EC50 data_value="10 to 50 µM"
compound="O=C(NCCCN1CCN(C(=O)NC(C(=O)N[C@H]2Cc3ccc(F)c(C(=O)O)c3OB2O)c2cc(F)c(O)c(O)c2Cl)C(=O)C1=O)c1c(F)cncc1Cl (some centres unmarked)" measured_property=EC50 data_value="10 to 50 µM"
compound="O=C(O)c1c(F)ccc2c1OB(O)[C@@H](NC(=O)C(NC(=O)N1CCN(C3CCN(C(=O)Nc4cccc(O)c4)CC3)C(=O)C1=O)c1cc(F)c(O)c(O)c1Cl)C2 (some centres unmarked)" measured_property=EC50 data_value="< 10 µM"
compound="O=C(O)c1c(F)ccc2c1OB(O)[C@@H](NC(=O)C(NC(=O)N1CCN(C3CCN(C(=O)Nc4cc(O)ccc4Cl)CC3)C(=O)C1=O)c1cc(F)c(O)c(O)c1Cl)C2 (some centres unmarked)" measured_property=EC50 data_value="10 to 50 µM"
compound="O=C(O)c1c(F)ccc2c1OB(O)[C@@H](NC(=O)[C@H](NC(=O)N1CCN(C3CCN(C(=O)c4cccc(O)c4Cl)CC3)C1=O)c1cc(F)c(O)c(O)c1Cl)C2 (single isomer, unassigned)" measured_property=EC50 data_value="< 10 µM"

###

measurement_target: PBP3 from Pseudomonas aeruginosa (PAO1) (Pseudomonas aeruginosa, UniProt G3XD46)
Sequence (G3XD46 whole entry): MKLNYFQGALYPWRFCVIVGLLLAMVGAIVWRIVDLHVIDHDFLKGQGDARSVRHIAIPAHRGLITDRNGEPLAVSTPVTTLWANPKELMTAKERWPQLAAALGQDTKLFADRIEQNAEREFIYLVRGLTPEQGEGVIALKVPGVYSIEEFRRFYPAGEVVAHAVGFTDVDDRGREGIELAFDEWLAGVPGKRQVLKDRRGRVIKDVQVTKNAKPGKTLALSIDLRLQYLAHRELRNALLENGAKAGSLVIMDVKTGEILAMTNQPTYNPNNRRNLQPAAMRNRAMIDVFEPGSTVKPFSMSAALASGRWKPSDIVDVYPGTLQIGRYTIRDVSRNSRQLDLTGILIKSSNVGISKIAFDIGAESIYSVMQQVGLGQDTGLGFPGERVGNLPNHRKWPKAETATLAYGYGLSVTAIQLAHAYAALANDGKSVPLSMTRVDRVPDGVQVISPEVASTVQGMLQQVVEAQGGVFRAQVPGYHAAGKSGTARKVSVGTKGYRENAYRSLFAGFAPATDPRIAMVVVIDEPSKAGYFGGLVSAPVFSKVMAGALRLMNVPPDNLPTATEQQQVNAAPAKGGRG
test_method_notes: Bocillin-FL fluorescence polarization competition binding, P. aeruginosa PBP3
run_parameters: Binding affinity to P. aeruginosa PBP3; fluorescence polarization competition binding assay using Bocillin-FL; read-out: P. aeruginosa PBP3 Potency
Entries and their measured IC50 follow.
measured_property: IC50

molecule="O=C(O)c1cccc2c1OB(O)[C@@H](NC(=O)[C@@H](NC(=O)c1cnc3n(c1=O)CCS3)c1ccc(P(=O)(O)O)cc1)C2 (single isomer, unassigned)" measured_property=IC50 data_value="50 to 250 µM"
molecule="O=C(O)c1c(F)ccc2c1OB(O)[C@@H](NC(=O)C(NC(=O)N1CCN(Cc3ccc(O)c(O)c3Cl)C(=O)C1=O)c1cc(F)c(O)c(O)c1Cl)C2 (some centres unmarked)" measured_property=IC50 data_value="< 10 µM"
molecule="O=C(O)c1c(F)ccc2c1OB(O)[C@@H](NC(=O)[C@H](NC(=O)N1CCN(C3CCN(C(=O)c4c(F)ccc(O)c4Cl)CC3)C1=O)c1cc(F)c(O)c(O)c1Cl)C2 (single isomer, unassigned)" measured_property=IC50 data_value="< 10 µM"
molecule="CS(=O)(=O)N1CCN(C(=O)NC(C(=O)N[C@H]2Cc3cccc(C(=O)O)c3OB2O)c2ccc(P(=O)(O)O)c(F)c2O)C1=O (some centres unmarked)" measured_property=IC50 data_value="10 to 50 µM"
molecule=O=C(NCCCS(=O)(=O)N1CCN(C(=O)N[C@@H](C(=O)N[C@H]2Cc3ccc(F)c(C(=O)O)c3OB2O)c2cc(F)c(O)c(O)c2Cl)C1=O)c1cccc(O)c1 measured_property=IC50 data_value="< 10 µM"

###

measurement_target: A. baumannii PBP1a (Acinetobacter baumannii)
Sequence (A0ABX6CK30 1-851): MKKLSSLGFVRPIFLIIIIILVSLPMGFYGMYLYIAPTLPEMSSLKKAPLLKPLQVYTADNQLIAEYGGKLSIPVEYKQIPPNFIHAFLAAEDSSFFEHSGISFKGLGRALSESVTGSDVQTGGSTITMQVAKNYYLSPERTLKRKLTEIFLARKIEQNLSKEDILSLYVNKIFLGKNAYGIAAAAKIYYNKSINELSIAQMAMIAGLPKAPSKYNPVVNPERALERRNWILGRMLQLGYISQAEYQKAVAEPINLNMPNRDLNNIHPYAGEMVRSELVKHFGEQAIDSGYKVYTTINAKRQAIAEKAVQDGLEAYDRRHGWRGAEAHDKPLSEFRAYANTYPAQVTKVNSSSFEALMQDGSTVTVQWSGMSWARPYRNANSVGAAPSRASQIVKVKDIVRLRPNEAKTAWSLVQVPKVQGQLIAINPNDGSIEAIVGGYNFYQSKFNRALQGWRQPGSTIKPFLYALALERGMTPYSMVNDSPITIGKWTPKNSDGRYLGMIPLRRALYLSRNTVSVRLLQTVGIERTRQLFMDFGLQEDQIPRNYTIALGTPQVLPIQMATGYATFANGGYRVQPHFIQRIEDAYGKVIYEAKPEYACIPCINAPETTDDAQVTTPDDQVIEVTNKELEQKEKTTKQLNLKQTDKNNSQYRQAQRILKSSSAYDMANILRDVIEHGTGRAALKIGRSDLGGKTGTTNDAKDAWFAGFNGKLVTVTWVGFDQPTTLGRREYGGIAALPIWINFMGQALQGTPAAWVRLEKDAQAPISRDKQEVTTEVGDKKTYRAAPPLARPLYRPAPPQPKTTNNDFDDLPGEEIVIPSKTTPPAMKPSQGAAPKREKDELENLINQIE
test_method_notes: Bocillin-FL competition binding via gel filtration, A. baumannii PBP1a
run_parameters: competition binding assay using Bocillin-FL via gel filtration; read-out: A. baumannii PBP1a Potency
Experimental: Affinity to A. baumannii PBP1a and PBP2 was assessed a competitive equilibrium binding assay using Bocillin-FL as the reporter molecule. Enzyme was pre-incubated with increasing concentrations of inhibitors, prior to addition of Bocillin and further incubation for 15 minutes. PBP bound with Bocillin-FL was separated by gel filtration using 96-well Zeba Spin size exclusion plates, and the fluorescence measured. […]
pEC50: −log10 of the molar value.
measured_property: pEC50

compound="O=C(NCCCN1CCN(C(=O)NC(C(=O)N[C@H]2Cc3ccc(F)c(C(=O)O)c3OB2O)c2cc(F)c(O)c(O)c2Cl)C(=O)C1=O)c1cc(O)ccc1Cl (some centres unmarked) [Example 408]" measurement_target="A. baumannii PBP1a (Acinetobacter baumannii)" data_value="> 5.00"
compound="O=C(NCCCN1CCN(C(=O)NC(C(=O)N[C@H]2Cc3ccc(F)c(C(=O)O)c3OB2O)c2cc(F)c(O)c(O)c2Cl)C(=O)C1=O)Nc1ccc(O)cc1 (some centres unmarked) [Example 227]" measurement_target="A. baumannii PBP1a (Acinetobacter baumannii)" data_value="4.30 to 5.00"
compound="O=C(O)c1c(F)ccc2c1OB(O)[C@@H](NC(=O)C(NC(=O)N1CCN(C3CCN(S(=O)(=O)Cc4cccc(O)c4)CC3)C(=O)C1=O)c1cc(F)c(O)c(O)c1Cl)C2 (some centres unmarked) [Example 485]" measurement_target="A. baumannii PBP1a (Acinetobacter baumannii)" data_value="> 5.00"
compound="O=C(O)c1c(F)ccc2c1OB(O)[C@@H](NC(=O)[C@H](NC(=O)N1CCN(C3CCN(C(=O)c4cc(F)c(F)c(O)c4F)CC3)C1=O)c1cc(F)c(O)c(O)c1Cl)C2 (single isomer, unassigned) [Example 441]" measurement_target="A. baumannii PBP1a (Acinetobacter baumannii)" data_value="> 5.00"
compound="O=C(NCCCN1CCN(C(=O)NC(C(=O)N[C@H]2Cc3ccc(F)c(C(=O)O)c3OB2O)c2cc(F)c(O)c(O)c2Cl)C(=O)C1=O)c1ccc(O)c(Cl)c1 (some centres unmarked) [Example 305]" measurement_target="A. baumannii PBP1a (Acinetobacter baumannii)" data_value="> 5.00"

###

Entries and their measured MIC follow.
Tested on: N. gonorrhoeae WHO Q
test_method_notes: Liquid broth MIC in Fastidious broth
run_parameters: Neisseria gonorrhoeae, read-out: Minimum Inhibitory Concentration (MIC), N. gonorrhoeae WHO Q
measured_property: MIC

molecule="CCN1CCN(C(=O)N[C@@H](C(=O)N[C@H]2Cc3cccc(C(=O)O)c3OB2O)c2ccc(P(C)(=O)O)cc2)C(=O)C1=O (single isomer, unassigned)" measured_property=MIC data_value="1 to 2 µg/mL"
molecule=O=C(CN1CCN(C(=O)N[C@@H](C(=O)N[C@H]2Cc3ccc(F)c(C(=O)O)c3OB2O)c2cc(F)c(O)c(O)c2Cl)C(=O)C1=O)NCc1nccs1 measured_property=MIC data_value="16 to 32 µg/mL"
molecule="CCN1CCN(C(=O)NC(C(=O)N[C@H]2Cc3cccc(C(=O)O)c3OB2O)c2ccc(P(=O)(O)O)c(F)c2O)C(=O)C1=O (stereo partly drawn)" measured_property=MIC data_value="1 to 2 µg/mL"
molecule="O=C(O)c1cccc2c1OB(O)[C@@H](NC(=O)C(NC(=O)c1ncccc1Cl)c1ccc(P(=O)(O)O)cc1)C2 (stereo partly drawn)" measured_property=MIC data_value="16 to 32 µg/mL"
molecule="CCN1CCN(C(=O)NC(C(=O)N[C@H]2Cc3cccc(C(=O)O)c3OB2O)c2ccc(S(=O)(=O)O)cc2)C(=O)C1=O (stereo partly drawn)" measured_property=MIC data_value="1 to 2 µg/mL"
molecule=CN(CCN1CCN(C(=O)N[C@@H](C(=O)N[C@H]2Cc3ccc(F)c(C(=O)O)c3OB2O)c2cc(F)c(O)c(O)c2Cl)C(=O)C1=O)Cc1nccs1 measured_property=MIC data_value="16 to 32 µg/mL"

###

measurement_target: PBP3 from Escherichia coli (K-12) (Escherichia coli, UniProt P0AD68)
Sequence (P0AD68 1-577): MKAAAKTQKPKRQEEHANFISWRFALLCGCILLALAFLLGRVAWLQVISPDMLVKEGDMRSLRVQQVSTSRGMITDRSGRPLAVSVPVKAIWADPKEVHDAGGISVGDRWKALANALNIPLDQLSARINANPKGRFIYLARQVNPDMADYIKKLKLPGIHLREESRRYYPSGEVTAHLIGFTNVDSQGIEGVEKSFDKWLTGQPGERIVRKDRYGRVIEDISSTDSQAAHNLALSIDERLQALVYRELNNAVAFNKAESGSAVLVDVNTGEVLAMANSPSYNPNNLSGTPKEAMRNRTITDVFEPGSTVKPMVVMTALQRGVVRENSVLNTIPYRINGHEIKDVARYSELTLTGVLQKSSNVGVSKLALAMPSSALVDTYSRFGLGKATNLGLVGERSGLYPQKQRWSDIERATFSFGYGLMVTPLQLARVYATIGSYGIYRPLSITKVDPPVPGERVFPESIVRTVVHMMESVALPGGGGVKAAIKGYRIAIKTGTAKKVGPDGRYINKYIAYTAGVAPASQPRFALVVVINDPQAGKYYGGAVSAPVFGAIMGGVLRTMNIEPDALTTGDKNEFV
test_method_notes: Bocillin-FL fluorescence polarization competition binding, E. coli PBP3
Entries and their measured EC50 follow.
measured_property: EC50

compound="O=C(NCCN1CCN(C(=O)NC(C(=O)N[C@H]2Cc3ccc(F)c(C(=O)O)c3OB2O)c2cc(F)c(O)c(O)c2Cl)C1=O)Nc1cccc(O)c1 (some centres unmarked)" data_value="< 10 µM"
compound="CS(=O)(=O)N1CCN(C(=O)NC(C(=O)N[C@H]2Cc3cccc(C(=O)O)c3OB2O)c2ccc(P(=O)(O)O)c(F)c2O)C1=O (some centres unmarked)" data_value="10 to 50 µM"
compound="O=C(NCCCN1CCN(C(=O)NC(C(=O)N[C@H]2Cc3ccc(F)c(C(=O)O)c3OB2O)c2cc(F)c(O)c(O)c2Cl)C(=O)C1=O)c1ccnc(F)c1 (some centres unmarked)" data_value="< 10 µM"
compound="O=C(O)c1cccc2c1OB(O)[C@@H](NC(=O)[C@H](NC(=O)c1cccn(C(F)F)c1=O)c1ccc(P(=O)(O)O)cc1)C2 (single isomer, unassigned)" data_value="< 10 µM"
compound=O=C(O)c1cccc2c1OB(O)[C@@H](NC(=O)[C@@H](NC(=O)N1CCNC1=O)c1ccc(P(=O)(O)O)cc1)C2 data_value="50 to 250 µM"
compound=O=C(NCCCN1CCN(C(=O)N[C@@H](C(=O)N[C@H]2Cc3ccc(F)c(C(=O)O)c3OB2O)c2cc(F)c(O)c(O)c2Cl)C(=O)C1=O)c1cccc(O)c1Cl data_value="< 10 µM"
compound="O=C(NCCN1CCN(C(=O)NC(C(=O)N[C@H]2Cc3ccc(F)c(C(=O)O)c3OB2O)c2ccc(P(=O)(O)O)cc2)C(=O)C1=O)c1ccc(O)c(O)c1Cl (some centres unmarked)" data_value="< 10 µM"
compound="O=C(NCCCN1CCN(C(=O)NC(C(=O)N[C@H]2Cc3ccc(F)c(C(=O)O)c3OB2O)c2cc(F)c(O)c(O)c2Cl)C(=O)C1=O)c1ccc(O)c(F)c1 (some centres unmarked)" data_value="< 10 µM"
compound="O=C(NCCS(=O)(=O)N1CCN(C(=O)NC(C(=O)N[C@H]2Cc3ccc(F)c(C(=O)O)c3OB2O)c2cc(F)c(O)c(O)c2Cl)C1=O)c1ccncc1 (some centres unmarked)" data_value="< 10 µM"
compound="O=C(O)c1cccc2c1OB(O)[C@@H](NC(=O)[C@H](NC(=O)c1cnc3n(c1=O)CCS3)c1ccc(P(=O)(O)O)cc1)C2 (single isomer, unassigned)" data_value="10 to 50 µM"
compound="CS(=O)(=O)N1CCN(C(=O)NC(C(=O)N[C@H]2Cc3cccc(C(=O)O)c3OB2O)c2ccc(P(=O)(O)O)c(F)c2)C1=O (some centres unmarked)" data_value="< 10 µM"
